Experimental Protocol: In vivo pharmacokinetic study in rats
Protocol Conditions: rat, plasma, oral, 10 mg/kg
Method: Blood was collected from rats at different times after administration at the following time points: 0.083 h, 0.25 h, 0.5 h, 1 h, 2 h, 4 h, 8 h, and 24 h after intravenous administration; 0.25 h, 0.5 h, 1 h, 2 h, 4 h, 6 h, 8 h, and 24 h after oral administration. […] Pharmacokinetic parameters such as AUC (0-t), T1/2, Cmax, Tmax, and MRT were calculated using WinNonlin based on plasma concentration data at different time points. […]
Outcome Measure: bioavailability (%)
# value in %; strip the unit string

# lookup: bioavailability of C[C@H](NC(=O)c1cn(C)c2ccc(-c3ccn4nc(NC(=O)C5CC5)nc4c3)cc12)c1cccc(F)c1 [Compound 94]
12.1

# lookup: bioavailability of Cn1cc(C(=O)N2CCC[C@H]2c2cccc(Cl)c2)c2cc(-c3ccn4nc(NC(=O)C5CC5)nc4c3)ccc21 [Compound 193]
31.7

# lookup: bioavailability of C[C@H](NC(=O)c1c[nH]c2ccc(-c3ccc4nc(NC(=O)C5CC5)sc4c3)cc12)c1cccc(F)c1 [Compound 34]
7.89

# lookup: bioavailability of Cn1cc(C(=O)N2CCC[C@H]2c2ccc(F)c(F)c2)c2cc(-c3ccn4nc(NC(=O)C5CC5)nc4c3)ccc21 [Compound 191]
20.4

# lookup: bioavailability of Cn1cc(C(=O)N2CCCC2c2cccc(F)c2)c2cc(-c3ccn4nc(NC(=O)C5CC5)nc4c3)ccc21 (stereo not drawn) [Compound 168]
60.9

# lookup: bioavailability of Cn1cc(C(=O)N2CCC[C@H]2c2ccc(F)cc2)c2cc(-c3ccn4nc(NC(=O)C5CC5)nc4c3)ccc21 [Compound 174]
35

###

For each of the compounds below, state its pIC50.
Study System: RIPK1 (Homo sapiens (Human), UniProt Q13546)
Sequence (Q13546 whole entry): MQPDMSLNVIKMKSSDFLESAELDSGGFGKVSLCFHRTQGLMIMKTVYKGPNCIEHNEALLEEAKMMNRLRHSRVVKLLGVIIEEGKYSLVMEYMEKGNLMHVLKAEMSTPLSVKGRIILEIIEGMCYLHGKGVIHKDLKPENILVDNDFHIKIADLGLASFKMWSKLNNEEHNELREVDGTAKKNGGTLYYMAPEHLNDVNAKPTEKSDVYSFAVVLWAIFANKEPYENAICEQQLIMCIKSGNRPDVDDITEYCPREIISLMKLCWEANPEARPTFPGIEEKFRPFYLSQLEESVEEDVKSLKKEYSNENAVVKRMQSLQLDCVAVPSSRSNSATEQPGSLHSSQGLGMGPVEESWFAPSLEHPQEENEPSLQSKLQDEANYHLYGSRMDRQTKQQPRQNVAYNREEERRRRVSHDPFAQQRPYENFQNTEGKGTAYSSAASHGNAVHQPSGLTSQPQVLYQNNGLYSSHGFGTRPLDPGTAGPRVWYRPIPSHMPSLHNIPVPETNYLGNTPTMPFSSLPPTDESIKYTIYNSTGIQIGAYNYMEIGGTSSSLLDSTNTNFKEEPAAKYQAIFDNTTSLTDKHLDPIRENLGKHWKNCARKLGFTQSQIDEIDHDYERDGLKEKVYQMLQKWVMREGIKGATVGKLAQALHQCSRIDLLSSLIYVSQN
pIC50: −log10 of the molar value.

Missing value: pIC50, RIPK1 (Homo sapiens (Human), UniProt Q13546), entry COc1ccc(NC(=O)c2c[nH]c3ncc(-c4ccc5nc(NC(=O)C6CC6)sc5c4)cc23)cc1OC . Fill in?
7.00 to 8.00

Missing value: pIC50, RIPK1 (Homo sapiens (Human), UniProt Q13546), entry C[C@H](NC(=O)c1cn(C)c2ccc(-c3ccc(N4CCOCC4)nc3)cc12)c1cccc(F)c1 . Fill in?
≤ 6.00

Missing value: pIC50, RIPK1 (Homo sapiens (Human), UniProt Q13546), entry Cc1cccc(C2CCCN2C(=O)c2cn(C)c3ccc(-c4ccn5nc(NC(=O)C6CC6)nc5c4)cc23)c1 (centres unmarked) . Fill in?
6.00 to 7.00

Missing value: pIC50, RIPK1 (Homo sapiens (Human), UniProt Q13546), entry C[C@H](NC(=O)c1c[nH]c2ccc(-c3ccc4nc(NC(=O)C5CCCC5)sc4c3)cc12)c1cccc(F)c1 . Fill in?
7.00 to 8.00

Missing value: pIC50, RIPK1 (Homo sapiens (Human), UniProt Q13546), entry Cn1cc(C(=O)NCc2cc(F)ccc2F)c2cc(-c3ccc4nc(NC(=O)C5CC5)sc4c3)ccc21 . Fill in?
7.00 to 8.00

Missing value: pIC50, RIPK1 (Homo sapiens (Human), UniProt Q13546), entry C[C@H](NC(=O)c1cn(C)c2ccc(-c3ccn4nc(N[C@@H](C)CO)nc4c3)cc12)c1cccc(F)c1 . Fill in?
7.00 to 8.00

Missing value: pIC50, RIPK1 (Homo sapiens (Human), UniProt Q13546), entry COCCn1cc(C(=O)N[C@@H](C)c2cccc(F)c2)c2cc(-c3ccn4nc(NC(=O)C5CC5)nc4c3)ccc21 . Fill in?
7.00 to 8.00

Missing value: pIC50, RIPK1 (Homo sapiens (Human), UniProt Q13546), entry COc1cc(F)ccc1NC(=O)c1c[nH]c2ncc(-c3ccc4nc(NC(=O)C5CC5)sc4c3)cc12 . Fill in?
≤ 6.00

Missing value: pIC50, RIPK1 (Homo sapiens (Human), UniProt Q13546), entry COCCn1cc(C(=O)N[C@@H](C)c2cccc(F)c2)c2cc(-c3ccc4c(NC(=O)C5CC5)n[nH]c4c3)ccc21 . Fill in?
8.00 to 9.00

Missing value: pIC50, RIPK1 (Homo sapiens (Human), UniProt Q13546), entry C[C@H](NC(=O)c1cn(C)c2ccc(-c3ccn4nc(NC(=O)C5(F)CC5)nc4c3)cc12)c1cccc(F)c1 . Fill in?
8.00 to 9.00

Missing value: pIC50, RIPK1 (Homo sapiens (Human), UniProt Q13546), entry CCn1cc(C(=O)N[C@H](c2ccc(F)cc2)C2CC2)c2cc(-c3ccn4nc(NC(=O)CN(C)C)nc4c3)ccc21 . Fill in?
7.00 to 8.00

Missing value: pIC50, RIPK1 (Homo sapiens (Human), UniProt Q13546), entry O=C(NCc1ccncc1)c1c[nH]c2ccc(-c3ccc4nc(NC(=O)C5CC5)sc4c3)cc12 . Fill in?
≤ 6.00

Missing value: pIC50, RIPK1 (Homo sapiens (Human), UniProt Q13546), entry CC[C@H](NC(=O)c1cn(CC)c2ccc(-c3ccn4nc(NC(=O)CN(C)C)nc4c3)cc12)c1ccc(F)cc1 . Fill in?
8.00 to 9.00

Missing value: pIC50, RIPK1 (Homo sapiens (Human), UniProt Q13546), entry C[C@H](NC(=O)c1c[nH]c2ccc(-c3ccn4nc(NC(=O)C5CC5)nc4c3)cc12)c1cccc(F)c1 . Fill in?
7.00 to 8.00

###

Study System: RIPK1 (Homo sapiens (Human))
Experimental Protocol: In vitro kinase assay (Eurofins Kinase Profiler), IC50
Type: biochemical
Protocol Conditions: 0.001-10 μM, read-out: RIPK 1 (IC50)
For each of the compounds below, state its IC50.

# lookup: IC50 of CC(C)n1cc(C(=O)N[C@@H](C)c2cccc(F)c2)c2cc(-c3ccc4c(NC(=O)C5CC5)n[nH]c4c3)ccc21 [Compound 112]
10 to 100 nM

# lookup: IC50 of CC(C)C(=O)Nc1nc2cc(-c3ccc4c(c3)c(C(=O)N[C@H](C)c3ccccn3)cn4C)ccn2n1 [Compound 136]
100 to 1000 nM

# lookup: IC50 of C[C@H](NC(=O)c1cn(C)c2ccc(-c3ccn4nc(NC(=O)N5CC[C@H](O)C5)nc4c3)cc12)c1cccc(F)c1 [Compound 163]
100 to 1000 nM

# lookup: IC50 of CCn1cc(C(=O)N2CCC[C@H]2c2ccc(F)cc2)c2cc(-c3ccn4nc(NC(=O)[C@H](C)O)nc4c3)ccc21 [Compound 205]
10 to 100 nM

# lookup: IC50 of C[C@H](NC(=O)c1cn(C)c2ccc(-c3ccn4nc(NC(=O)C5CC5)nc4c3)cc12)c1ccncc1 [Compound 176]
100 to 1000 nM

# lookup: IC50 of CCn1cc(C(=O)N[C@@H](C)c2cccc(F)c2)c2cc(-c3ccc4c(NC(=O)C5CC5)n[nH]c4c3)ccc21 [Compound 111]
1 to 10 nM

# lookup: IC50 of CC[C@H](NC(=O)c1cn(CC)c2ccc(-c3ccn4nc(NC(=O)C5CC5)nc4c3)cc12)c1ccc(F)cc1 [Compound 199]
1 to 10 nM

# lookup: IC50 of O=C(NCc1cccc(OC(F)(F)F)c1)c1c[nH]c2ccc(-c3ccc4nc(NC(=O)C5CC5)sc4c3)cc12 [Compound 19]
10 to 100 nM

# lookup: IC50 of CC(C)C(=O)Nc1nc2cc(-c3ccc4c(c3)c(C(=O)N[C@H](C)c3cccc(Cl)c3)cn4C)ccn2n1 [Compound 126]
10 to 100 nM

###

Experimental Protocol: In vivo pharmacokinetic study in rats
Protocol Conditions: rat, plasma, oral, 10 mg/kg
Label 1 when AUC(0-t) is strictly below 10000 ng·h/mL; otherwise label -1.

Please state whether AUC(0-t) is below 10000 ng·h/mL for C[C@H](NC(=O)c1c[nH]c2ccc(-c3ccc4nc(NC(=O)C5CC5)sc4c3)cc12)c1cccc(F)c1 [Compound 34]
1

Please state whether AUC(0-t) is below 10000 ng·h/mL for Cn1cc(C(=O)N2CCCC2c2cccc(F)c2)c2cc(-c3ccn4nc(NC(=O)C5CC5)nc4c3)ccc21 (stereo not drawn) [Compound 168]
-1

Please state whether AUC(0-t) is below 10000 ng·h/mL for C[C@H](NC(=O)c1cn(C)c2ccc(-c3ccn4nc(NC(=O)C5CC5)nc4c3)cc12)c1cccc(F)c1 [Compound 94]
1

Please state whether AUC(0-t) is below 10000 ng·h/mL for Cn1cc(C(=O)N2CCC[C@H]2c2ccc(F)cc2)c2cc(-c3ccn4nc(NC(=O)C5CC5)nc4c3)ccc21 [Compound 174]
-1

Please state whether AUC(0-t) is below 10000 ng·h/mL for Cn1cc(C(=O)N2CCC[C@H]2c2cccc(Cl)c2)c2cc(-c3ccn4nc(NC(=O)C5CC5)nc4c3)ccc21 [Compound 193]
-1

Please state whether AUC(0-t) is below 10000 ng·h/mL for Cn1cc(C(=O)N2CCC[C@H]2c2ccc(F)c(F)c2)c2cc(-c3ccn4nc(NC(=O)C5CC5)nc4c3)ccc21 [Compound 191]
1
